meta.source: patent US20210100246A1

percentage of degradation by entry:
Test: Accelerated stability test of 5% solutions in commercial solvents (54° C., 2 weeks, HPLC)
Format: physicochemical
Details: solvent Purasolv BL (butyl lactate)
measure: percentage of degradation (%)

compound="CCN(C)C=Nc1cc(C)c(SCc2c(F)cccc2F)nc1C [Compound 39]" unit_info=% observed_result=100
compound="CCN(C)C=Nc1cc(Br)c(SCc2cccc(C(F)(F)F)c2)nc1C [Compound 1]" unit_info=% observed_result=100
compound="CCCCCCSc1nc(C)c(N=CN(C)CC)cc1C [Compound 17]" unit_info=% observed_result=100
compound="CCN(C)C=Nc1cc(C)c(SCC2CCCCC2)nc1C [Compound 40]" unit_info=% observed_result=100
